# tested-system: human D3 dopamine receptors (Homo sapiens, UniProt P35462)
# Construct: expressed in transfected cells; host or cells: CHO cells (crude cell membranes)
# Sequence (P35462 whole entry): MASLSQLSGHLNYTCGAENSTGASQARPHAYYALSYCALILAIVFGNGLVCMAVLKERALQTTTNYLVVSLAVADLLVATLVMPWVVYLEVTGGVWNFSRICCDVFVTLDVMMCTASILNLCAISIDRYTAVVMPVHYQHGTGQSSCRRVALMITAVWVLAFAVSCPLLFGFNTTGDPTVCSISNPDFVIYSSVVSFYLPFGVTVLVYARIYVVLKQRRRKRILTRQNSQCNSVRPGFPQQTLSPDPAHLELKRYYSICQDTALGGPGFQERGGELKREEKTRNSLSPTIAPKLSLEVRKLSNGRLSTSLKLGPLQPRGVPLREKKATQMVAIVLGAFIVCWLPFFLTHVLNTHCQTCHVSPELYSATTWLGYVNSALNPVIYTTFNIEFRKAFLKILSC
# procedure-text: displacement of [125I] iodosulpride binding to cloned human D3 dopamine receptors expressed in CHO cells
# experimental-conditions: 0.1 nM [125I] iodosulpride, CHO cell membranes, 30 min at 37° C.; read-out: pKi at the D3 receptor (converted)
value-type: Ki

INSERT INTO measurements (smiles_str, observed) VALUES
  ('N#Cc1ccc2c(c1)CCN(CC[C@H]1CC[C@H](NC(=O)Cc3cc4ccccc4o3)CC1)C2', '3.16 to 12.6 nM'),
  ('N#Cc1ccc2c(c1)CCN(CC[C@H]1CC[C@H](NC(=O)CCCc3ccccc3)CC1)C2', '3.16 to 12.6 nM'),
  ('N#Cc1ccc2c(c1)CCN(CC[C@H]1CC[C@H](NC(=O)Cc3ccc(I)cc3)CC1)C2', '3.16 to 12.6 nM'),
  ('N#Cc1ccc2c(c1)CCN(CC[C@H]1CC[C@H](NC(=O)Cc3ccccn3)CC1)C2', '3.16 to 12.6 nM'),
  ('N#Cc1ccc2c(c1)CCN(CC[C@H]1CC[C@H](NC(=O)Cc3ccsc3)CC1)C2', '3.16 to 12.6 nM'),
  ('N#Cc1ccc2c(c1)CCN(CC[C@H]1CC[C@H](NC(=O)Cc3ccc(F)cc3F)CC1)C2', '3.16 to 12.6 nM'),
  ('N#Cc1ccc2c(c1)CCN(CC[C@H]1CC[C@H](NC(=O)Cc3cccc(F)c3)CC1)C2', '3.16 to 12.6 nM'),
  ('N#Cc1ccc2c(c1)CCN(CC[C@H]1CC[C@H](NC(=O)Cc3ccnc4ccccc34)CC1)C2', '3.16 to 12.6 nM');
